This collection of values is drawn from ChEMBL document CHEMBL3351296.

# method-notes: Antioxidant activity of the compound assessed as reduction in absorbance of DPPH after 60 mins incubation at 100 uM by DPPH radical scavenging /microplate assay
# Assay type: physicochemical
# reported-conditions: 1 h
The entries below come with measured inhibition (INH) values attached.
Please answer using the number first and the unit second.

Worked examples follow.
IN: Read off the recorded inhibition (INH) for Oc1ccc(/C=C/c2cc(O)cc(O)c2)cc1
OUT: 45.5%

IN: For the compound COc1ccc(/C=C/C=N/NC(=O)c2ccc(C(C)(C)C)cc2)cc1 , give its reported inhibition (INH).
OUT: -8.3%

---
IN: Indicate the recorded inhibition (INH) value for this compound: O=C(N/N=C/c1cc(O)cc(O)c1)c1ccc(O)cc1
OUT: 11.2%

IN: Please give measured inhibition (INH) of the following entry: CC(C)(C)c1ccc(C(=O)N/N=C/c2cc(O)cc(O)c2)cc1
OUT: 10.9%

IN: For the compound O=C(N/N=C/c1ccc(O)cc1)c1ccc(O)cc1 , give its measured inhibition (INH) value.
OUT: 38%

IN: Identify measured inhibition (INH) associated with COc1cc(/C=C/C=N/NC(=O)c2ccc(O)cc2)ccc1O
OUT: 56.7%

IN: Check the records and state inhibition (INH) for O=C1O[C@H]([C@@H](O)CO)C(O)=C1O
OUT: 77.9%

IN: State its inhibition (INH): COc1cc(/C=C/C=N/NC(=O)c2ccc(C(C)(C)C)cc2)ccc1O
OUT: 45.6%

IN: In one line, give reported inhibition (INH) of the entry COc1ccc(/C=C/C=N/NC(=O)c2ccc(O)cc2)cc1 .
OUT: -1.5%

IN: Given CC(C)(C)c1ccc(C(=O)N/N=C/c2ccc(O)cc2)cc1 , respond with its inhibition (INH).
OUT: 15%

----------
Quick reference for inhibition (INH) among some molecules
# method-notes: Antioxidant activity of the compound assessed as reduction in absorbance of DPPH after 60 mins incubation at 1000 uM by DPPH radical scavenging /microplate assay
# Assay type: physicochemical
# reported-conditions: 1 h
Write the numeric value and follow it with the unit.

IN: Return inhibition (INH) (reported value) for this molecule: COc1cc(/C=C/C=N/NC(=O)c2ccc(O)cc2)ccc1O
OUT: 75.5%

IN: Name the recorded inhibition (INH) of the item O=C(N/N=C/c1ccc(O)cc1)c1ccc(O)cc1 in your answer.
OUT: 65%

Attention now shifts to the item below.
IN: For the molecule COc1ccc(/C=C/C=N/NC(=O)c2ccc(O)cc2)cc1 , report inhibition (INH).
OUT: 2.8%

----------
# method-notes: Antioxidant activity of the compound assessed as reduction in absorbance of DPPH after 60 mins incubation by DPPH radical scavenging /microplate assay
# Assay type: physicochemical
observed-property: IC50 (µM)
Kindly provide the numeric value in µM only, without the unit symbol.

IN: Please indicate IC50 recorded for Oc1ccc(/C=C/c2cc(O)cc(O)c2)cc1 [RESVERATROL]
OUT: 110

Continuing:
IN: For COc1cc(/C=C/C=N/NC(=O)c2ccc(C(C)(C)C)cc2)ccc1O , write its IC50.
OUT: 110

IN: Supply reported IC50 belonging to this compound: O=C1O[C@H]([C@@H](O)CO)C(O)=C1O [ASCORBIC ACID]
OUT: 64.2

IN: Fill in reported IC50 for this entry: O=C(N/N=C/c1ccc(O)cc1)c1ccc(O)cc1
OUT: 275

IN: Return IC50 for the following compound: COc1cc(/C=C/C=N/NC(=O)c2ccc(O)cc2)ccc1O
OUT: 88.2
